Data provenance: ChEMBL document CHEMBL4428120

# System: RNA
# TEST NAME: Binding affinity to RNA (unknown origin) assessed as inhibition of fluorescent dsRNA probe binding to DNA at 200 uM at 200 uM pre-incubated for 5 mins before dsRNA addition and measured after 5 mins by ethidium bromide displacement based EMSA method relative to control
# Assay type: nucleic-acid assay
The source made the active and inactive calls. No cut-off for these calls is given here.
Respond with a class label; see 1.0 for active, 0.0 for inactive

Examples with answers:
[[record]]
compound = "NC(=O)NC(NC(=O)NC(NC(N)=O)c1ccco1)c1ccco1 (stereo unspecified)"
assigned_category = 0.0

[[record]]
compound = "CN1CCN(CCSC(=O)C(Cl)(c2ccccc2)C2CCCC2)CC1 (stereo unspecified)"
assigned_category = 0.0

[[record]]
compound = "COC1=C/C(=C/C=C(\\NNC(=S)NN)c2sc(NNC(C)=O)nc2C)C=CC1=O"
assigned_category = 0.0


# input Hi team, can someone confirm the assay call for CNCc1ccco1 ?
# output 0.0

# input // next record O=C(OCCCCOC(=O)N1C(=O)c2ccccc2C1=O)N1C(=O)c2ccccc2C1=O
# output 1.0

# input // next record c1coc(CNCNCc2ccco2)c1
# output 0.0

# input // next record CCC(=O)NNC(/C=C/c1cccc(O)c1)=C1/S/C(=N\c2ccc(C)cc2[N+](=O)[O-])N=C1C
# output 0.0

# input // next record Cc1nc(-n2nc(-c3ccccc3)cc2-c2ccccc2)sc1C(=O)/C=C/c1ccc([N+](=O)[O-])cc1
# output 0.0

# input // next record Nc1nnc2nc(CC(=O)c3cccc([N+](=O)[O-])c3)c(CC(=O)c3cccc([N+](=O)[O-])c3)nn12
# output 0.0

# input // next record CCOc1ccccc1C(SCC(=O)O)SCC(=O)O
# output 0.0

# input // next record CCOC(=O)NC(NC(=O)OCC)c1ccc(C(NC(=O)OCC)NC(=O)OCC)cc1
# output 0.0
